# EXPERIMENT: Inhibitory concentration in CCR4-transfected murine pre-B L1.2 cells (chemotaxis assay)
VALUE KIND: IC50 (µM)
Give the value in µM but do not write µM after it.

(Q) Quick one: IC50 for CCN(CC)CCCC(C)Nc1nccc(NCc2ccc(Cl)cc2Cl)n1 (stereo unspecified) ?
(A) 5
